# TARGET: menin/MLL binding (biotinylated wild-type or mutated menin and MLL-AF9 fusion protein) (Homo sapiens)
# Construct: biotinylated (1) wild-type menin or (2) mutated menin (described in Nature (2012) Vol. 482, pp. 542-548); fused on or other part: Biotin attached chemically (Sulfo-NHS-Biotin); no fused second protein is printed for menin
# Sequence (O00255 1-459 limits assumed, change not shown): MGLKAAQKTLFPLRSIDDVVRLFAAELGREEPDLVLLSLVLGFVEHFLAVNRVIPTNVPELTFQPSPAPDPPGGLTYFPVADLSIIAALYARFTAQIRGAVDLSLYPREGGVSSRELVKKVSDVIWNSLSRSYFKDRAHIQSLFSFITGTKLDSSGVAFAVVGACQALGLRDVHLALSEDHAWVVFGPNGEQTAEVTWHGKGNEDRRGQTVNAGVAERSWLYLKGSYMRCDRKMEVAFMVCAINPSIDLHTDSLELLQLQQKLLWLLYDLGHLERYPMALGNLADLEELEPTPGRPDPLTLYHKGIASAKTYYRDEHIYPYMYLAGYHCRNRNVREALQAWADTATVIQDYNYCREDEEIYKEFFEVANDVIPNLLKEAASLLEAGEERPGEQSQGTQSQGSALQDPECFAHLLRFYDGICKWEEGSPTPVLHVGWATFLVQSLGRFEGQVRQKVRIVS
# EXPERIMENT_NOTES: Assay 1 (Binding Assay): AlphaLISA menin/MLL binding
# CONDITION_INFO: 5 nM biotinylated menin, MLL-AF9-FLAG lysate
QUANTITY_NAME: IC50

# annotated cases, reported IC50 shown
COMPOUND: Cc1c(CN2CCC(c3cn(-c4ccc(F)cc4CC(C)C)c4cnccc34)CC2)ccc2[nH]c(C#N)cc12 [Example 42]
IC50: < 100 nM
//
COMPOUND: CCN(C(=O)c1cc(F)ccc1-n1cc(C2CCCN(Cc3ccc4c(c3)[nH]c(=O)n4CCO)C2)c2ccncc21)C(C)C (centres unmarked) [Example 49]
IC50: < 100 nM
//
COMPOUND: CC(C)N(C(=O)c1cc(F)ccc1-n1cc(C2CCC(N3CCC4(CC(NS(C)(=O)=O)C4)C3)CC2)c2ccncc21)C(C)C (single isomer, unassigned) [Example 139A]
IC50: < 100 nM

Q: Supply IC50 value. Item: CC(C)N(C)C(=O)c1cc(F)ccc1-n1cc(C2CCN(Cc3ccc(F)cc3)CC2)c2ccncc21 [Example 9]
Result: < 100 nM

Q: Supply IC50 value. Item: CC(C)N(C)C(=O)c1cc(F)ccc1-n1cc(C2C[C@@H](C)N[C@@H](C)C2)c2ccncc21 (some centres unmarked) [Int. 13]
Result: 100 to 1000 nM

Q: Supply IC50 value. Item: CC(C)N(C)C(=O)c1cc(F)ccc1-n1cc([C@H]2CC[C@H](N3CCN(CCO)CC3)CC2)c2ccncc21 [Example 114]
Result: < 100 nM

Q: Supply IC50 value. Item: Cc1c(CN2CCC(c3cn(-c4ccc(F)cc4)c4cncnc34)CC2)ccc2[nH]c(C#N)cc12 [Example 66]
Result: 100 to 1000 nM

Q: Supply IC50 value. Item: CC(C)N(C)C(=O)c1cc(F)ccc1-n1cc(C2CCCN(Cc3ccc4[nH]c(=O)[nH]c4c3)C2)c2ccncc21 (centres unmarked) [Example 43]
Result: < 100 nM

Q: Supply IC50 value. Item: CC(C)N(C)C(=O)c1cc(F)ccc1-n1cc([C@H]2CC[C@@H](N3CCC(F)(F)CC3)CC2)c2ccncc21 [Example 111]
Result: 100 to 1000 nM

Q: Supply IC50 value. Item: CC(C)N(C)C(=O)c1cc(F)ccc1-n1cc(C2CCN(c3ccccn3)CC2)c2ccncc21 [Example 94]
Result: < 100 nM

Q: Supply IC50 value. Item: CC(C)N(C)C(=O)c1cc(F)ccc1-n1cc([C@H]2CC[C@H](N3CCC[C@H]3CO)CC2)c2ccncc21 [Example 96]
Result: < 100 nM

Q: Supply IC50 value. Item: CC(C)N(C(=O)c1cc(F)ccc1-n1cc(C2CCN(C[C@H]3CC[C@H](NS(C)(=O)=O)CC3)C2)c2ccncc21)C(C)C (some centres unmarked) [Example 127]
Result: < 100 nM

Q: Supply IC50 value. Item: CC(C)N(C)C(=O)c1cc(F)ccc1-n1cc(C2CCC(NCC3CCC(NS(C)(=O)=O)CC3)CC2)c2ccncc21 (single isomer, unassigned) [Example 61]
Result: < 100 nM

Q: Supply IC50 value. Item: CC(C)N(C)C(=O)c1cc(F)ccc1-n1cc([C@H]2CC[C@@H](N3CCN(CCO)CC3)CC2)c2ccncc21 [Example 115]
Result: 100 to 1000 nM
